tested on: T1, Rb^P R451S (human, UniProt P06400 380-788, R451S)
T1 construct: also called variant 7
T1 sequence (looked up): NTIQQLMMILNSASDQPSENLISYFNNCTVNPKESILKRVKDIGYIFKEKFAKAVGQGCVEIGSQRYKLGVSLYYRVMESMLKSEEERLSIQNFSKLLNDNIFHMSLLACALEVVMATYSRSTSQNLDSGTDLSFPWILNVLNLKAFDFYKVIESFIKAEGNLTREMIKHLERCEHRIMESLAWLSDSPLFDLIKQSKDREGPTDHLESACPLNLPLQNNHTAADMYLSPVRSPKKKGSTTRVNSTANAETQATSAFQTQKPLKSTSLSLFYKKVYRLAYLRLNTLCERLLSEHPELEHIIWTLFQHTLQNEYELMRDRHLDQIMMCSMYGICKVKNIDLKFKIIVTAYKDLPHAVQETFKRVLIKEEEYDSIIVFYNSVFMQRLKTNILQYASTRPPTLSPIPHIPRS
experiment description: fluorescence polarisation; 37 °C, after the 25 °C reading ramped over 7 min to 37 °C and 2 min incubation; unlabeled Rb^P against 1.5 nM TMR-E2F1^TD or 7.5 nM TMR-E7^LxCxE; 25 mM Tris pH 8.0, 200 mM NaCl, 1 mM DTT, 0.1% Tween-20; apparent Kd
conditions used: both partners purified
No end group written: not given here. TMR = tetramethyl rhodamine dye
Kd by entry:

binder	Kd / nM
{TMR}-GEGIRDLFDCDFGDLTPLD (also called E2F^TD; source: synthetic peptide, bought: GenScript) [TMR-E2F1^TD, peptide of the E2F1 transactivation domain]	44
DLYCYEQLN (also: TMR label, position not given here, source: synthetic peptide, bought: GenScript) [TMR-E7^LxCxE, LxCxE peptide of the E7 oncoprotein from HPV]	17
